Cited source: patent US20240075137A1

Tested System: T1, PVRIG (FACS-based competition assay of FIGS. 7 and 15) (Homo sapiens, UniProt Q6DKI7)
T1 construct: made because the format of the assay is only described in U.S. Ser. No. 15/048,967; also called human PVRIG
T1 sequence (receptor, looked up): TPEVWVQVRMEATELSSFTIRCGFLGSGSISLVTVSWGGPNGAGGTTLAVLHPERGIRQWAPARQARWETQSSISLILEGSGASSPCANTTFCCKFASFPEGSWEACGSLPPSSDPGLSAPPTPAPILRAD
Method Description: FACS-based competition assay of PVRIG blocking; format and competitor not given
Property Name: IC50 (nM)
A number alone suffices; assume nM.

Note to self: IC50 recorded for CHA.7.522 (antibody, V domains shown) VH: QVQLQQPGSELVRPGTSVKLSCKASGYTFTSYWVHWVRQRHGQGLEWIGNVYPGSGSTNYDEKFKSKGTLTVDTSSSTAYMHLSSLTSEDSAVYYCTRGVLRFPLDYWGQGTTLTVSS VL: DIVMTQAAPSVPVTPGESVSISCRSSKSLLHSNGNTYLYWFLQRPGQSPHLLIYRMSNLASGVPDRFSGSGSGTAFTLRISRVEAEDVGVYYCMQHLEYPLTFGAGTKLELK was 50.5

// sample CHA.7.516 (antibody, V domains shown) VH: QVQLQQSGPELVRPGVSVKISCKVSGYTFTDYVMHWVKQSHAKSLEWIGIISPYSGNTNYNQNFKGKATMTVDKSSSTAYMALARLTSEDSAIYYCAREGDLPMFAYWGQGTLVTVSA VL: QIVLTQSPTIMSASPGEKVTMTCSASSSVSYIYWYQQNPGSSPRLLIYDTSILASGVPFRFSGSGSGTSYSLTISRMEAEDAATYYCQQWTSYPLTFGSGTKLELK , its IC50 was 33.1

Input CHA.7.535 (antibody, V domains shown) VH: EVQLQQSGPELVKPGASVKISCKTSGYTFTKNTMHWVRQSHGKSLEWIGGINPNSGGASFNQKFMGKATLTVDKSSSTAYMELRSLTSEDSAVYYCARDGYDGDWFFDVWGAGTTVTVSS VL: DIQMNQSPFSLSASLGDTVTITCHASQNIYVWLSWYQQKPGNIPKLLIYKASDLHTGVPSRFSGSGSGTDFTLNISSLQPEDIATYYCQQGQSYPRTFGGGTKLEIK . Output IC50: 821
